- experimental target: Neu5Ac(a2-3)Gal(b1-4)Glc
- method notes: glycan array binding signal (z-score within array); higher = stronger binding
- measurement setup: glycan notation: IUPAC condensed, linker removed
Only a selection was taken, and the strongest signals are over-represented in it overall.
property label: glycan array binding signal (z-score)
Enter a number only.

Q: Quick one: glycan array binding signal (z-score) of Epa2 (Candida glabrata) (protein) MGSSHHHHHHSSGLVPRGSHMASSKDPTSFPMGCSPQVLKTQPGLAVKLYSYGHPVPGCAYNTYQYPDFPRSGYKKERKLADITGVNGRIDIDLKPNDPCRVLSGNLPSNYNYQNTLTYTNFTMILYGYFQPKVTGYHTFNLEADDLLFMNLGAGNAFDCCRAESTLDNFGNYQSYSIWGTDKATADLTVFLVSGIYYPIRLFYVNRDNNAVLDFSFSTEFNKEIIHDFTSYFFSASDEEQCPGNI ?
A: 0.776

Q: Also F17bG (Escherichia coli), Q47200 (protein) MTNFYKVFLAVFILVCCNISHAVVSFIGSTENDVGPSQGSYSSTHAMDNLPFVYNTGYNIGYQNANVWRIGGGFCVGLDGKVDLPVVGSLDGQSIYGLTEEVGLLIWMGDTNYSRGTAMSGNSWENVFSGWCVGNYLSTQGLSVHVRPVILKRNSSAQYSVQKTSIGSIRMRPYNGSSAGSVQTTVNFSLNPFTLNDTVTSCRLLTPSAVNVSLAAISAGQLPSSGDEVVAGTTSLKLQCDAGVTVWATLTDATTPSNRSDILTLTGASTATGVGLRIYKNTDSTPLKFGPDSPVKGNENQWQLSTGTETSPSVRLYVKYVNTGEGINPGTVNGISTFTFSYQ , if possible.
A: -0.498

Q: How about Vd2LysM (Verticillium dahliae) (protein) YRRTCSHTGKGEGWYIIRRGDNFNAVAADFCTSTNVLTEWNHISTITDNMVNTKIKVPCRWNAGKQRDCLKDQKSSNGWYHIVSGDELKDIAYDFCTTSGSLAGMNGISNPDYIKANTDIVVPCSWN ?
A: 0.49

Sourced from the supplement of paper PMC8728848
